# TARGET: T1, human CD40 expressed on cells (human, UniProt P25942 21-277)
# T1 construct: also called huCD40; Raji cells
# ASSAY_REMARKS: flow cytometry, Raji cells;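 also: cell binding of antibodies to Raji cells detected by flow cytometry using an Alexa488-labelled anti-human IgG secondary antibody, primary incubation 1 h at 4 °C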
VALUE_KIND: EC50

Observe how each entry below is paired with its result.
Measured EC50, P1AE0819, humanized anti-CD40 antibody VH1d/VL1d, huIgG1_LALA_PG (antibody, V domains shown, huIgG1 with effector silent Fc (P329G, L234A, L235A)) VH: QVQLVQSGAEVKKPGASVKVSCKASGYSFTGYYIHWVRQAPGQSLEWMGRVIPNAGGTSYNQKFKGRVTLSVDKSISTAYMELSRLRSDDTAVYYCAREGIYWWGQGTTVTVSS VL: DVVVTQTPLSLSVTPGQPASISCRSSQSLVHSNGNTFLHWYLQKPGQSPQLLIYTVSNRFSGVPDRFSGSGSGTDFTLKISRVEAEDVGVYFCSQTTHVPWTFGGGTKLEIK : 0.11 µg/mL

Measured EC50 of P1AE0407, humanized anti-CD40 antibody VH2d/VL2b, huIgG1_LALA_PG (antibody, V domains shown, huIgG1 with effector silent Fc (P329G, L234A, L235A); also called VL2b/VH2d) VH: EVQLLESGGGLVQPGGSLRLSCAASGYSFTGYYIHWVRQAPGKGLEWVGRVIPNAGGTSYGDSVKGRFTISVDNSKNTAYLQMNSLRAEDTAVYYCAREGIYWWGQGTTVTVSS VL: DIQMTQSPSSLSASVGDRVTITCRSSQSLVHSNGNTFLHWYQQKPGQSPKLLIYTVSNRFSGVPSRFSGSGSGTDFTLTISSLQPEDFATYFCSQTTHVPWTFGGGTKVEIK : 0.12 µg/mL

New cases:
Form: binder = P1AE1000, humanized anti-CD40 antibody VH1d/VL1c, huIgG1_LALA_PG (antibody, V domains shown, huIgG1 with effector silent Fc (P329G, L234A, L235A)) VH: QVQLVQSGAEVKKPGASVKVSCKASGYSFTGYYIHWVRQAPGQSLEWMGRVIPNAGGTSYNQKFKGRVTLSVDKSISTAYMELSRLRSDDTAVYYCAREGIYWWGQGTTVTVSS VL: DVVVTQTPLSLSVTPGQPASISCRSSQSLVHSNGNTFLHWYLQKPGQSPQLLIYTVSNRFSGVPDRFSGSGSGTDFTLKISRVEAEDVGVYFCSQTTHVPWTFGGGTKVEIK ; EC50 = 0.14 µg/mL
